- target_of_assay: F1F0-ATPase (Bos taurus, UniProt P13621)
- assay_summary: Inhibition of ATP synthesis by the F1F0-ATPase
- Type: biochemical
- run_conditions: IC40: concentration for 40% inhibition
property_measured: ATP Synthesis (IC40 μM)

Provide only the value of recorded ATP Synthesis (IC40 μM) for "N#Cc1cccc(C(=O)N=C(NCCc2c[nH]cn2)Nc2cccc(-c3ccccc3)c2)c1" >10 µM

Provide only the value of recorded ATP Synthesis (IC40 μM) for "O=C(/N=C(/NCCc1c[nH]cn1)Nc1cccc2[nH]ccc12)c1cccc(Cl)c1" >10 µM

Provide only the value of recorded ATP Synthesis (IC40 μM) for "O=C(/N=C(\Nc1ccc(-c2ccccc2)cc1)Nc1ccc2[nH]ccc2c1)c1cccc(Cl)c1" >10 µM

Provide only the value of recorded ATP Synthesis (IC40 μM) for "O=C(N=C(NCCc1c[nH]cn1)Nc1ccccc1-c1ccccc1)c1ccccc1" >20 µM

Provide only the value of recorded ATP Synthesis (IC40 μM) for "O=C(/N=C(\Nc1ccc(-c2ccccc2)cc1)Nc1cccc2[nH]ccc12)c1cccc(Cl)c1" >10 µM

Provide only the value of recorded ATP Synthesis (IC40 μM) for "COc1cccc(NC(=NC(=O)c2cccc(Cl)c2)NCCc2c[nH]cn2)c1" >20 µM

Provide only the value of recorded ATP Synthesis (IC40 μM) for "COc1cccc(-c2ccc(NC(=NC(=O)c3cccc(Cl)c3)NCCc3c[nH]cn3)cc2)c1" <10 µM

Provide only the value of recorded ATP Synthesis (IC40 μM) for "O=C(N=C(NCCc1c[nH]cn1)Nc1cccc(-c2ccccc2)c1)c1cccc(Cl)c1" <10 µM
